Test system: P388
assay-notes: Cytotoxicity in mouse P388 cells
Type: functional
measurement-conditions: read-out: ED50 (the source's name)
EC50: recorded values

Previously resolved entries follow.
In [3]: df
Out[3]:
                                   compound  value_reported
0  COc1cc(-c2c3c(cc4c(OC)c5c(cc24)OCO5)COC3=O)cc(OC)c1OC       1.8 µg/mL
1  COc1cc([C@@H]2c3cc4c(cc3C[C@@H]3COC(=O)[C@H]32)OCO4)cc(OC)c1OC      > 20 µg/mL
2  COc1cc(-c2c3c(c(O)c4cc5c(cc24)OCO5)COC3=O)cc(OC)c1OC [DEHYDROPODOPHYLLOTOXIN]       > 5 µg/mL

# evaluate next
Query: Query (compound): COc1cc(-c2c3c(cc4cc5c(cc24)OCO5)COC3=O)cc(OC)c1OC [DEOXYDEHYDROPODOPHYLLOTOXIN] ; field requested: EC50
Result: > 5 µg/mL

----------
assay-notes: Toxicity in brine shrimp
Assay type: organism-based
measurement-conditions: artemia, in vivo
Response field label takes criterion met when LC50 is strictly below 100 µg/mL and criterion not met in all other cases.

>>> print(df.to_string())
                                   compound              label
0  COc1cc([C@@H]2c3cc4c(cc3C[C@H]3COC(=O)[C@@H]32)OCO4)cc(OC)c1O [4'-DEMETHYLDEOXYPODOPHYLLOTOXIN]      criterion met
1  COc1cc(-c2c3c(cc4cc5c(cc24)OCO5)COC3=O)cc(OC)c1OC [DEOXYDEHYDROPODOPHYLLOTOXIN]  criterion not met
2  COc1cc(C[C@H]2C(=O)OC[C@@H]2Cc2ccc3c(c2)OCO3)cc(OC)c1OC      criterion met
3  COc1cc([C@@H]2c3cc4c(cc3[C@H](O)[C@H]3COC(=O)[C@H]23)OCO4)cc(OC)c1OC [PODOFILOX]      criterion met
4  COc1cc(-c2c3c(c(O)c4cc5c(cc24)OCO5)COC3=O)cc(OC)c1OC [DEHYDROPODOPHYLLOTOXIN]  criterion not met

Query: For this compound, is LC50 lower than 100 µg/mL? `COc1cc(-c2c3c(cc4c(OC)c5c(cc24)OCO5)COC3=O)cc(OC)c1OC`
Result: criterion not met

Query: Consider COc1cc([C@@H]2c3cc4c(cc3C[C@H]3COC(=O)[C@H]32)OCO4)cc(OC)c1OC [DEOXYPICROPODOPHYLLIN] . Does its LC50 lie strictly below 100 µg/mL?
Result: criterion not met

Query: I'd appreciate it if you could check whether COc1cc([C@@H]2c3cc4c(cc3C[C@@H]3COC(=O)[C@H]32)OCO4)cc(OC)c1OC [ISODEOXYPODOPHYLLOTOXIN] has LC50 smaller than 100 µg/mL.
Result: criterion not met

Query: Identify whether the compound `COc1cc(-c2c3c(c(O)c4c(OC)c5c(cc24)OCO5)COC3=O)cc(OC)c1OC` records LC50 below 100 µg/mL.
Result: criterion not met

----------
assay-notes: Antimitotic activity in rat ASK cells assessed as reversal of astrocyte formation at 0.032 ug/mL
Format: functional
Parameter: Activity. Scope: all listed entries.
The reply should contain only the number, in %.

Solved entries (count: 2):
In [3]: df
Out[3]:
                                   compound  result_type  value_reported
0  COc1cc([C@@H]2c3cc4c(cc3C[C@H]3COC(=O)[C@H]32)OCO4)cc(OC)c1OC [DEOXYPICROPODOPHYLLIN]     Activity               0
1  COc1cc(-c2c3c(c(O)c4cc5c(cc24)OCO5)COC3=O)cc(OC)c1OC [DEHYDROPODOPHYLLOTOXIN]     Activity               0

Query: Activity; subject: COc1cc([C@@H]2c3cc4c(cc3C[C@H]3COC(=O)[C@@H]32)OCO4)cc(OC)c1O [4'-DEMETHYLDEOXYPODOPHYLLOTOXIN]
Result: 100

----------
EC50 by entry:
Test system: A-431
assay-notes: Cytotoxicity against human A431 cells
Format: functional
measurement-conditions: read-out: ED50 (the source's name)
Enter your answer as a number in µg/mL; do not include the unit.

Previously resolved entries follow.
>>> print(df.to_string())
                                   compound  result_type  scale_unit  value_reported
0  COc1cc(-c2c3c(cc4cc5c(cc24)OCO5)COC3=O)cc(OC)c1OC [DEOXYDEHYDROPODOPHYLLOTOXIN]         EC50       µg/mL             6.2
1  COc1cc([C@@H]2c3cc4c(cc3[C@H](O)[C@H]3COC(=O)[C@H]23)OCO4)cc(OC)c1OC [PODOFILOX]         EC50       µg/mL            0.03

Here is another compound to look at.
Query: GET /values?readout=EC50&item= `COc1cc(-c2c3c(c(O)c4c(OC)c5c(cc24)OCO5)COC3=O)cc(OC)c1OC`
Result: 6.2

----------
assay-notes: Antimitotic activity in rat ASK cells assessed as reversal of astrocyte formation at 0.032 ug/mL
Assay type: functional
Consider the following compounds and their measured Activity readings.

Query: Recorded Activity for `COc1cc2c(c(OC)c1OC)-c1ccc(OC)c(=O)cc1[C@@H](NC(C)=O)CC2` , please?
Result: 0%

Query: Which Activity reading was recorded for the compound `COc1cc([C@@H]2c3cc4c(cc3C[C@H]3COC(=O)[C@@H]32)OCO4)cc(OC)c1OC` ?
Result: 100%

Query: Quick one: Activity of `COc1cc(-c2c3c(c(O)c4c(OC)c5c(cc24)OCO5)COC3=O)cc(OC)c1OC` ?
Result: 0%

----------
assay-notes: Cytotoxicity against human BC1 cells
Type: functional
measurement-conditions: read-out: ED50 (the source's name)
Consider the following compounds and their measured EC50 readings.
Give the value, in units of µg/mL, as a plain number.

In [3]: df
Out[3]:
                         structure_notation  result_type  value_reported
0  COc1cc([C@@H]2c3cc4c(cc3C[C@H]3COC(=O)[C@H]32)OCO4)cc(OC)c1OC         EC50             2.1
1  COc1cc(-c2c3c(c(O)c4c(OC)c5c(cc24)OCO5)COC3=O)cc(OC)c1OC         EC50             7.6
2  COc1cc([C@@H]2c3cc4c(cc3C[C@H]3COC(=O)[C@@H]32)OCO4)cc(OC)c1O         EC50            0.01
3  COc1cc([C@@H]2c3cc4c(cc3[C@H](O)[C@H]3COC(=O)[C@H]23)OCO4)cc(OC)c1OC         EC50            0.03

Query: What value of measured EC50 is listed for `COc1cc(C[C@H]2C(=O)OC[C@@H]2Cc2ccc3c(c2)OCO3)cc(OC)c1OC` ?
Result: 0.05

Query: // EC50 lookup, key: `COc1cc([C@@H]2c3cc4c(cc3C[C@H]3COC(=O)[C@@H]32)OCO4)cc(OC)c1OC`
Result: 0.001

----------
Tested on: Col2
assay-notes: Cytotoxicity against human Col2 cells
Format: functional
measurement-conditions: read-out: ED50 (the source's name)
Please assign F whenever EC50 is at or above 0.3 mg/L, and T whenever it is below.

Example entries and their recorded answers appear below.
>>> df
                                   molecule  label
0  COc1cc(-c2c3c(c(O)c4c(OC)c5c(cc24)OCO5)COC3=O)cc(OC)c1OC      F
1  COc1cc([C@@H]2c3cc4c(cc3C[C@H]3COC(=O)[C@@H]32)OCO4)cc(OC)c1OC [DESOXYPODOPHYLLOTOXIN]      T

Query: Identify whether the molecule COc1cc(-c2c3c(cc4cc5c(cc24)OCO5)COC3=O)cc(OC)c1OC [DEOXYDEHYDROPODOPHYLLOTOXIN] records EC50 below 0.3 mg/L.
Result: F

Query: Does this molecule meet the criterion EC50 < 0.3 mg/L? COc1cc([C@@H]2c3cc4c(cc3C[C@@H]3COC(=O)[C@H]32)OCO4)cc(OC)c1OC [ISODEOXYPODOPHYLLOTOXIN]
Result: F

Query: I'd appreciate it if you could check whether COc1cc([C@@H]2c3cc4c(cc3[C@H](O)[C@H]3COC(=O)[C@H]23)OCO4)cc(OC)c1OC [PODOFILOX] has EC50 smaller than 0.3 mg/L.
Result: T

Query: Strictly below 0.3 mg/L in EC50? COc1cc(-c2c3c(c(O)c4cc5c(cc24)OCO5)COC3=O)cc(OC)c1OC [DEHYDROPODOPHYLLOTOXIN]
Result: F
